B1: CPEB3 Ribozyme (parent)
chain: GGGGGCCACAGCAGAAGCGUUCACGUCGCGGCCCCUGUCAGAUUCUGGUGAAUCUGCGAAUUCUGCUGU

Variants of: B1
Test: self-cleavage, relative activity (ratio to wild type); higher = more cleavage; co-transcriptional
Lab note: class by self-cleavage, see low (below 0.2), medium (0.2 to below 0.6), high (0.6 or more)

C33A G37A ... medium
C35U U36C ... high
A16U U49G ... high
C45A A59U ... high
A15G C35A ... medium
G5C G19A ... low
G56C U61C ... medium
G1C G3U ... low
G65C G68A ... high
C32A A59C ... medium

Enquiry: Using the reported self-cleavage, which band applies to G14U U55C ?
Return: medium

Enquiry: Using the reported self-cleavage, which band applies to G41A A42G ?
Return: high
